Every entry's value here was drawn from patent US7432244.

Each record here notes measured IC50.
Molecular target: IGF-1 (human, UniProt P05019)
Sequence (P05019 49-118): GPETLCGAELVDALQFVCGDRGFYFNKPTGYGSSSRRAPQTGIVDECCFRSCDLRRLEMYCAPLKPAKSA
Test: competition phage ELISA
property measured: IC50 (µM)

> print(dat)
                   binder  unit.of.measurement  result
1  VKCARDLSGFVYCWA [F2-C]                   µM   10000
2  VRCAYDAGGSRYCWE [F2-B]                   µM    24.6
3  RNCFESVAALRRCMY [F1-C]                   µM   0.108
